assay details: Clearance in Beagle dog at 1 mg/kg, iv by LC-MS/MS analysis
Format: ADME, organism-based, Canis lupus familiaris
reported conditions: in vivo
property name: clearance (mL/min/kg)
Expressed in mL/min/kg, but write only the number.

Exam item: # clearance lookup, item Cn1nccc1[C@H]1CCCC[C@@H]1Oc1cc(F)c(S(=O)(=O)Nc2ccncn2)cc1Cl
Marked response: 8.7

----------
assay details: Tmax in Beagle dog at 1 mg/kg, iv or po by LC-MS/MS analysis
Assay type: ADME, organism-based, Canis lupus familiaris
reported conditions: in vivo
property name: Tmax

Exam item: Return reported Tmax; argument: Cn1nccc1[C@H]1CCCC[C@@H]1Oc1cc(F)c(S(=O)(=O)Nc2ccncn2)cc1Cl
Marked response: 30 min
